Test system: M14 melanoma
TEST DETAILS: NCI tumour cell line growth inhibition, 48 h
MEASURED METRIC: TGI

>  <SMILES REPR>
O=c1c2ccccc2c(/C=N\NC2=NCCN2)c2oc3ccccc3n12

>  <TGI>
> 100 µM

$$$$
>  <SMILES REPR>
Nc1[nH]c(=S)nc2nc3c(c(-c4ccccc4)c12)CCCC3

>  <TGI>
> 100 µM

$$$$
>  <SMILES REPR>
CCOC(=O)C(CCC(N)=O)(CCC(=O)OC)C(=O)OCC

>  <TGI>
> 100 µM

$$$$

# return recorded TGI for input COC(=O)[C@]12CC[C@@H](C)[C@H](C)[C@@H]1C1=CC[C@@H]3[C@@]4(C)C[C@@H](OC(=O)/C=C/c5ccccc5)[C@H](O)[C@@](C)(CO)[C@@H]4[C@H](O)C[C@@]3(C)[C@]1(C)CC2 8.58 µM

Where these numbers come from: PubChem BioAssay (NCI)
